# runDescription: Pharmacokinetic study in rats
# experimentalSetup: Sprague Dawley, rat, in vivo, po, 250 mg/kg, HL (half-life), oral 250 mg/kg, mean ± SD
assayReadout: half-life (h)

> print(dat)
                                 smilesrepr  uom  recordedresult
1  O=c1oc2ccccc2c(O)c1C(c1cccc(Cl)c1)c1c(O)c2ccccc2oc1=O    h            7.92
2  O=c1oc2ccccc2c(O)c1C(c1ccc(Cl)cc1)c1c(O)c2ccccc2oc1=O    h            16.6

====

Some molecules, each annotated with its measured Cmax.
# runDescription: Pharmacokinetic study in mice
# experimentalSetup: C57BL/6, mouse, in vivo, po, 250 mg/kg, Cmax, mice, oral 250 mg/kg, mean ± SD
assayReadout: Cmax (µg/mL)

> print(dat)
                                 smilesrepr    uom  recordedresult
1  O=c1oc2ccccc2c(O)c1C(c1ccc(Cl)cc1)c1c(O)c2ccccc2oc1=O  µg/mL             197
2  O=c1oc2ccccc2c(O)c1C(c1cccc(Cl)c1)c1c(O)c2ccccc2oc1=O  µg/mL            68.9

====

# runDescription: Pharmacokinetic study in rats
# experimentalSetup: Sprague Dawley, rat, in vivo, po, 250 mg/kg, Peak plasma concentration (Cmax), rats, oral 250 mg/kg
# Lookup of reported Cmax keyed by entry
assayReadout: Cmax (µg/mL)

> print(dat)
                                 smilesrepr  assayreadout  recordedresult
1  O=c1oc2ccccc2c(O)c1C(c1cccc(Cl)c1)c1c(O)c2ccccc2oc1=O          Cmax            80.7
2  O=c1oc2ccccc2c(O)c1C(c1ccc(Cl)cc1)c1c(O)c2ccccc2oc1=O          Cmax             133

====

Overview of recorded MRT inf for various molecules
# runDescription: Pharmacokinetic study in mice
# experimentalSetup: C57BL/6, mouse, in vivo, po, 250 mg/kg
assayReadout: MRT inf (h)

> print(dat)
                                 smilesrepr  uom  recordedresult
1  O=c1oc2ccccc2c(O)c1C(c1ccc(Cl)cc1)c1c(O)c2ccccc2oc1=O    h            10.1
2  O=c1oc2ccccc2c(O)c1C(c1cccc(Cl)c1)c1c(O)c2ccccc2oc1=O    h            10.6

====

# runDescription: Pharmacokinetic study in rats
# experimentalSetup: Sprague Dawley, rat, in vivo, po, 250 mg/kg
In this section we review reported AUC(0-inf) values for a set of compounds.
assayReadout: AUC(0-inf) (µg·h/mL)

> print(dat)
                                   compound      uom  recordedresult
1  O=c1oc2ccccc2c(O)c1C(c1cccc(Cl)c1)c1c(O)c2ccccc2oc1=O [compound 3]  µg·h/mL            1100
2  O=c1oc2ccccc2c(O)c1C(c1ccc(Cl)cc1)c1c(O)c2ccccc2oc1=O [compound 4]  µg·h/mL            4440
